# MEASURED_ON: endogenous CGRP receptor (Homo sapiens, UniProt O60894+Q16602)
# Sequence (Q16602 23-461): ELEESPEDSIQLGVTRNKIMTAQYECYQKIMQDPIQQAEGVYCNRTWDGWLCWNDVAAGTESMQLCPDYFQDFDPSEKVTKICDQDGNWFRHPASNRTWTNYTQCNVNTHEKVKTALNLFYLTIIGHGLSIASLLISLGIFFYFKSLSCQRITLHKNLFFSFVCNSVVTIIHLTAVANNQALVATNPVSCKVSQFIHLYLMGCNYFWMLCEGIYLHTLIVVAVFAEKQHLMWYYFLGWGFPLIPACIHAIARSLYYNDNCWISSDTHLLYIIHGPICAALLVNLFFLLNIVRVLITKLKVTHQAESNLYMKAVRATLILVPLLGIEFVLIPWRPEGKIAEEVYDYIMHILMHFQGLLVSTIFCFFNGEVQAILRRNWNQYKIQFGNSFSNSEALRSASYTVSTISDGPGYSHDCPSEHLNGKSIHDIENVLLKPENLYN
# Sequence (O60894 27-148): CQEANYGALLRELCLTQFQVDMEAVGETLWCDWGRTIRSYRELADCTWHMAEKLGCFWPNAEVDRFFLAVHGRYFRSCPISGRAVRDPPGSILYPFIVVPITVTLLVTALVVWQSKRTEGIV
# PROCEDURE_DETAILS: CGRP functional antagonism using SK-N-MC-BLA (4C10), β-lactamase transcriptional reporter assay
# MEASUREMENT_SETUP: SK-N-MC (4C10) cells, inhibition of β-lactamase expression in the presence of 200 pM CGRP
Here the recorded IC50 is given for each entry.

Please review the following examples before continuing.
Prompt line: Endpoint output: IC50 of CC(C)OCCN1C(=O)[C@H](CC(=O)N2CCC(n3c(=O)[nH]c4ncccc43)CC2)SC1c1cccc(F)c1N1CCN(C(C)(C)C)CC1 (stereo partly shown) [Compound 531] . Value?
Response line: < 1000 nM

Prompt line: What about this molecule? CC(C)(C)CCN1C(=O)C(CC(=O)N2CCC(N3CCc4ccccc4NC3=O)CC2)SC1c1ccccc1N1CCCCC1 (stereo not shown) [Compound 7]
Response line: < 1000 nM

Prompt line: Another: CC(C)CCN1C(=O)C(CC(=O)N2CCC(N3CCc4ccccc4NC3=O)CC2)SC12CCCCCC2 (stereo not shown) [Compound 91]
Response line: < 1000 nM

Prompt line: Same thing, different molecule: CN1CCN(c2ccccc2[C@H]2S[C@](C)(CC(=O)N3CCC(N4Cc5ccccc5NC4=O)CC3)C(=O)N2CCC(C)(C)C)CC1 [Compound 334]
Response line: < 1000 nM

Prompt line: Record: CC(C)N1CCN(c2ncccc2C2S[C@@H](CC(=O)N3CCC(N4CCc5ccccc5NC4=O)CC3)C(=O)N2CCC(C)(C)C)CC1 (stereo partly shown) [Compound 444]
Response line: > 5000 nM

Prompt line: Also CC(C)CCN1C(=O)C(CC(=O)N2CCC(N3CCc4ccccc4NC3=O)CC2)SC1C1CCCCC1 (stereo not shown) [Compound 37] , if possible.
Response line: < 1000 nM

New cases:
Prompt line: Item under review: COCC(C)N1C(=O)C(CC(=O)N2CCC(N3Cc4ccccc4NC3=O)CC2)SC1c1ccccc1 (stereo not shown) [Compound 250] . Reported IC50?
Response line: > 5000 nM
